Target: NL-PRMT5 (NLuc-PRMT5) (Homo sapiens)
Sequence (O14744 2-637): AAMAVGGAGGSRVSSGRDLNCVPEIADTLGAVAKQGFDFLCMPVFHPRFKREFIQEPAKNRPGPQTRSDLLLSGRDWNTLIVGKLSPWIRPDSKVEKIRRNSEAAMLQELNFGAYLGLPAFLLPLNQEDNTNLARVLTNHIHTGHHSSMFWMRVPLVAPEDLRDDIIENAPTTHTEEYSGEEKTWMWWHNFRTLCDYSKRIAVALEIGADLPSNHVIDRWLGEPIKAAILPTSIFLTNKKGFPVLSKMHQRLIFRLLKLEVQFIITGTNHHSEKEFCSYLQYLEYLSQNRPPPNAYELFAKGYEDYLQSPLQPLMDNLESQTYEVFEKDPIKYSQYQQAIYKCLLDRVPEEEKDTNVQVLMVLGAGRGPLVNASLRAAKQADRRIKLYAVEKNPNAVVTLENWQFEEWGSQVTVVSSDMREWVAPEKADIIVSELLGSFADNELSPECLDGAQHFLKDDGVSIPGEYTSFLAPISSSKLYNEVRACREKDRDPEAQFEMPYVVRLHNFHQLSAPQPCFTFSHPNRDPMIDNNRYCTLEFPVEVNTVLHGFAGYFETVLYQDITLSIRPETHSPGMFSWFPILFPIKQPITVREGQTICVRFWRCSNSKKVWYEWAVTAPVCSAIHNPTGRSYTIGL
Assay: NanoBRET target engagement, displacement of CBH-002
endpoint-label: pEC50
Give bare numbers, as −log10 of the molar value.

Bench note: what pEC50 did "Nc1ncnc2c1ccn2[C@@H]1O[C@H]([C@H](O)c2ccccc2)[C@@H](O)[C@H]1O" show?
6.52
